# protocol.details: differential killing of epithelial or mesenchymal cells, primary screen, imaging, PC-3E GFP, TEM4-18 mCherry, co-culture (AID 1345086);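 also: normalised mesenchymal count divided by normalised epithelial count so high means epithelial killing; cells exposed to compound for 72 h before imaging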
# recorded.conditions: imaging cell counts, at 1 µM, actives lie on both sides, counts scaled to control wells, 1 = unselective
Attribute: red/green cell ratio (normalised)

[
  {
    "compound": "C[C@]12CCC3c4ccc(O)cc4CCC3C1CC[C@@H]2OC(=O)CCC1CCCC1 (some centres not stated)",
    "red/green cell ratio (normalised)": 1.54
  },
  {
    "compound": "CCCCCOC(=O)Nc1nc(=O)n(C2O[C@H](C)[C@@H](O)[C@H]2O)cc1F (some centres not stated)",
    "red/green cell ratio (normalised)": 1.41
  },
  {
    "compound": "C=CC[C@@H]1/C=C(\\C)C[C@H](C)C[C@H](OC)[C@H]2O[C@@](O)(C(=O)C(=O)N3CCCC[C@H]3C(=O)O[C@H](/C(C)=C/[C@@H]3CC[C@@H](O)[C@H](OC)C3)[C@H](C)[C@@H](O)CC1=O)[C@H](C)C[C@@H]2OC",
    "red/green cell ratio (normalised)": 1.19
  },
  {
    "compound": "COC1=CC(=O)C(C)=C(C[C@@H](C)O)C1=O",
    "red/green cell ratio (normalised)": 1.12
  },
  {
    "compound": "CC(=O)O[C@@H]1CC[C@@]2(C)C(CC[C@]3(C)C2CC=C2C4CC(C)(C)CC[C@]4(C(=O)O)CC[C@]23C)C1(C)C (some centres not stated)",
    "red/green cell ratio (normalised)": 0.84
  },
  {
    "compound": "CNc1ccccc1C(=O)N1CCc2c([nH]c3ccccc23)C1=O",
    "red/green cell ratio (normalised)": 1.01
  },
  {
    "compound": "C=C1C2=C(C(=O)N1OC)[C@H](O)[C@](C)(O)[C@H](CCCCC)O2",
    "red/green cell ratio (normalised)": 1.13
  },
  {
    "compound": "CNC1C(O[C@@H]2OC(CO)C(N)[C@H](O)C2O)OC2CC(N)[C@@H](OC3C(N)C[C@@H](N)C(O)[C@H]3O)OC2C1O (some centres not stated)",
    "red/green cell ratio (normalised)": 1.2
  },
  {
    "compound": "N[C@@H]1[C@@H](O)[C@H](O)[C@@H](CO)O[C@H]1O",
    "red/green cell ratio (normalised)": 1.04
  },
  {
    "compound": "C[N+](C)(C)CCOP(=O)([O-])OP(=O)(O)OC[C@H]1OC(n2ccc(N)nc2=O)[C@H](O)[C@@H]1O (some centres not stated)",
    "red/green cell ratio (normalised)": 1.29
  },
  {
    "compound": "C=C[C@](C)(O)CC[C@@H]1[C@@]2(C)CCCC(C)(C)[C@@H]2CC[C@]1(C)O",
    "red/green cell ratio (normalised)": 1.05
  },
  {
    "compound": "O=C(O)C(c1ccccc1)c1ccccc1",
    "red/green cell ratio (normalised)": 1.12
  },
  {
    "compound": "Cc1c(F)c(F)cc2c(=O)n(N)c(=O)n(C3CC3)c12",
    "red/green cell ratio (normalised)": 0.9
  },
  {
    "compound": "COC(=O)c1cc(Br)ccc1Cl",
    "red/green cell ratio (normalised)": 1.04
  },
  {
    "compound": "CN(C)CC(=O)OC[C@@H](O)[C@@H](O)[C@H](O)[C@@H](O)C(=O)O",
    "red/green cell ratio (normalised)": 1.02
  },
  {
    "compound": "[N-]=[N+]=N[C@H]1[C@H](Sc2ccccc2)OC(CO)C(O)[C@@H]1O (some centres not stated)",
    "red/green cell ratio (normalised)": 0.98
  },
  {
    "compound": "Cc1ccc(S[C@H]2OC(COS(=O)(=O)c3ccc(C)cc3)C(O)[C@@H]3OC(=O)N[C@H]23)cc1 (some centres not stated)",
    "red/green cell ratio (normalised)": 0.86
  }
]
